Target: S. enterica MTAN (SeMTAN) (Salmonella choleraesuis, UniProt Q57T48)
Sequence (Q57T48 whole entry): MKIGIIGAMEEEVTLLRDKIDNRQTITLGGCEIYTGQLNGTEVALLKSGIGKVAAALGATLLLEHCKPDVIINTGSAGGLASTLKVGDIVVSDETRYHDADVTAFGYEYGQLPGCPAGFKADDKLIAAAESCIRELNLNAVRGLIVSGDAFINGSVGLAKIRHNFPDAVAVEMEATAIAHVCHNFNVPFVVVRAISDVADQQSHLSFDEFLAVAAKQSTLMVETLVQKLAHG
Assay: slow-onset inhibition constant
Format: biochemical
Details: methylthio-DADMe-ImmA as reference
recorded.metric: ΔΔG (kcal/mol)
Give the value in kcal/mol but do not write kcal/mol after it.

The reported ΔΔG of the compound CCCCSC[C@H]1CN(Cc2c[nH]c3c(N)ncnc23)C[C@@H]1O [Butylthio-DADMe-ImmA, reference compound] was -0.7

The reported ΔΔG of the compound Nc1ncnc2c(CN3C[C@H](CSCC[C@H](N)C(=O)O)[C@@H](O)C3)c[nH]c12 [Homocysteine-DADMe-ImmA, reference compound] was 1.5

The reported ΔΔG of the compound Nc1ncnc2c(CN3CC(O)C(CSCCO)C3)c[nH]c12 (stereo not shown) [2-Hydroxyethylthio-DADMe-ImmA] was 0.5

The reported ΔΔG of the compound Nc1ncnc2c(CN3CC(O)C(CSCCCO)C3)c[nH]c12 (stereo not shown) [3-Hydroxypropylthio-DADMe-ImmA] was 0.2

The reported ΔΔG of the compound Nc1ncnc2c(CN3CC(O)C(CSCCOCCO)C3)c[nH]c12 (stereo not shown) [2-(2-hydroxyethoxy)ethylthio-DADMe-ImmA] was 0

The reported ΔΔG of the compound CSC[C@H]1CN(Cc2c[nH]c3c(N)ncnc23)C[C@@H]1O [Methylthio-DADMe-ImmA, reference compound] was 0

The reported ΔΔG of the compound Nc1ncnc2c(CN3CC(O)C(CSCCCCO)C3)c[nH]c12 (stereo not shown) [4-Hydroxybutylthio-DADMe-ImmA] was 0.6
